Target: T1, recombinant GST-SNAP25197 (UniProt P60880 1-197)
T1 construct: not shown: glutathione S-transferase (GST) tag
T1 sequence (P60880 1-197): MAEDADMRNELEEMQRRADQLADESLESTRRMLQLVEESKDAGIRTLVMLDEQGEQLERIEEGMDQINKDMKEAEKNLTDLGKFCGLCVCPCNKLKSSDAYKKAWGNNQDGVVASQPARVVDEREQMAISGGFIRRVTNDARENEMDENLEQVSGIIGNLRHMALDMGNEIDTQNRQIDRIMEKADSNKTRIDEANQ
Experiment: direct ELISA; signal on GST-SNAP25197 against GST-SNAP25FL as reference
# key: entry, value: Ratio197/206 (A450 with SNAP25197 to A450 with SNAP25FL)
Reported metric: Ratio197/206 (A450 with SNAP25197 to A450 with SNAP25FL) (ratio)

>>> data_value("C7 IgG (antibody, V domains shown, also called C7 IgG2a) VH: QVQLVETGGGLVQPKGSLKLSCAASGFTFNTNAMNWVRQAPGKGLEWVARIRSKSNNYATYYADSVKDRFTISRDDSQSLLYLQMNNLKTEDTAMYYCVYGRSYGGLSYWGQGTLVTVSA VL: DIVMTQSPASLAVSLGQRATISCRASKSVSSSGYSYMHWYQQKPGQPPKLLIYLASNLESGVPARFSGSGSGTDFTLNIHPVEEEDAATYYCQHSRELPLTFGAGTKLELK")
1040
>>> data_value("D3 IgG (antibody, V domains shown) VH: EVQLEESGGGLVQPGGSLKLSCAASGFTFSNYGMSWVRQTPDKRLELVATINSNGGTTYYPDSVKGRFTISRDNAKNTLYLQMSSLKSEDSAMYYCARDRDAMDYWGQGTSVTVSS VL: DVLMTQTPLSLPVSLGDQASISCRSSQSIVNSHGNTYLEWYLQKPGQSPKLLIYKVSNRFSGVPDRFSGSGSGTDFTLKISRVEAEDLGVYYCFQGSHVPWTFGGGTKLEIK")
12.9
>>> data_value("B4 IgG (antibody, V domains shown, also called B4 IgG1; clone 4) VH: EVKLVESGGGLVKPGGSLKLSCAASGFTFSNYGMSWVRQTPEKRLEWVATISSGGSYTYYPDSVKGRFTISRDNAKNTLYLQMSSLRSEDTAMYYCARHEGGGNPYFDYWGQGTTLTVSS VL: DVLMTQTPLSLPVSLGDQASISCRSSQSLVHSNGNTYLHWYLQKPGQSPKLLIYKVSNRFSGVPDRFSGSGSGTDFTLKISRVEAEDLGVYFCSQNTLVPWTFGGGTKLEIK")
0.83
